Target: human mu opioid receptor (Homo sapiens, UniProt P35372)
Construct: expressed in transfected cells; host or cells: CHO-K1
Sequence (P35372 whole entry): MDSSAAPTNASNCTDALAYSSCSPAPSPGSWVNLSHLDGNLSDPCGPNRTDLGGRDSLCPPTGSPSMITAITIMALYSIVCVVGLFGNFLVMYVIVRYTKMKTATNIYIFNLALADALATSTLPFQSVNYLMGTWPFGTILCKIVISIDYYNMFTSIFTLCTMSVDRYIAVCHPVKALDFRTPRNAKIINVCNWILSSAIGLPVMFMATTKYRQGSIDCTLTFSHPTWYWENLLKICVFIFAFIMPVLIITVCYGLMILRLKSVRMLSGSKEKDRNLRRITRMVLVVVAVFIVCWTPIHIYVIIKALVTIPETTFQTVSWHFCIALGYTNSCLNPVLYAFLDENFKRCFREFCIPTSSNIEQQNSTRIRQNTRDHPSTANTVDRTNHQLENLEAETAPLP
Experiment: Radioligand binding assay, human mu opioid receptor
Conditions: displacement of [3H]-Diprenorphine
For each record, write down the corresponding pKi.
Numbers only.

Study these solved cases before continuing.
NC(=O)c1cccc([C@H]2C[C@H]3CC[C@@H](C2)N3CCN(Cc2ccccc2)C(=O)CO)c1 [Example 46B] ... 10.0
NC(=O)c1cccc([C@H]2C[C@H]3CC[C@@H](C2)N3CCN(CC2CCCCC2)C(=O)[C@@H](O)CO)c1 [Example 58] ... 9.9
O=C(CO)N(CCN1[C@@H]2CC[C@H]1C[C@@H](c1cccc(O)c1)C2)Cc1ccccc1 [Example 1] ... 10.1

Attention now shifts to the item below.
Memo: CS(=O)(=O)CC(=O)N(CCc1ccccc1)CCN1[C@@H]2CC[C@H]1C[C@@H](c1cccc(C(N)=O)c1)C2 [Example 136] , reported pKi: 9.8
